# system: human GLP-1 receptor (human, UniProt P43220 24-463)
# experiment.summary: cell-based or functional assay
*1 amine or outer side, *2 acyl side, *3 side chain or, on linkers, in order; H or OH if unused. Where no end group is shown, it is not given here. Side-chain parts run from the residue outwards. [ ]: non-standard residue; d: D form. The star is where a group is joined. Decanoyl(10-(4-HOOC-PhO)) = O=C(O)c1ccc(OCCCCCCCCCC(=O)*)cc1; αMePhe(2-F) = C[C@](N)(Cc1ccccc1F)C(=O)O; γGlu = O=C(O)[C@H](CCC(=O)[*:2])N[*:1]; C14 diacid = O=C(O)CCCCCCCCCCCCC(=O)*; αMeY = C[C@](N)(Cc1ccc(O)cc1)C(=O)O; αMeL = CC(C)C[C@](C)(N)C(=O)O; Orn = NCCC[C@H](N)C(=O)O; AEEA = NCCOCCOCC(=O)O; Aib = CC(C)(N)C(=O)O
measured.endpoint: cAMP EC50 (1.0% HSA)

>>> value_measured("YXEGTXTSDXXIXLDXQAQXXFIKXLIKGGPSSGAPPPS (not fully specified; Y-Aib-EGT-αMeF(2F)-TSD-4Pal-Aib-I-αMeL-LD-Orn-QAQ-Aib-Orn-FIK((2-[2-(2-Amino-ethoxy)-ethoxy]-acetyl)-Aoc-(γ-Glu)-CO-(CH2)12-CO2)-αMeY-LIK((2-[2-(2-Amino-ethoxy)-ethoxy]-acetyl)-Aoc-(γ-Glu)-CO-(CH2)12-CO2)GGPSSGAPPPS-NH2) [Example 450]")
"32.3 nM"
>>> value_measured("Y[Aib]EGT[αMePhe(2-F)]TSDV[Aib]I[αMeL]LD[Orn]K([AEEA-AEEA-γGlu-Decanoyl(10-(4-HOOC-PhO))])AQ[Aib]EFI[dE][αMeY]LIEGGPSSGAPPPSK([AEEA-AEEA-γGlu-Decanoyl(10-(4-HOOC-PhO))])-NH2 [Example 380]")
"28 nM"
>>> value_measured("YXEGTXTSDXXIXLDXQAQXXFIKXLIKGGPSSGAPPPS (Y-Aib-EGT-αMeF(2F)-TSD-4Pal-Aib-I-αMeL-LD-Orn-QAQ-Aib-Orn-FIK((2-[2-(2-Amino-ethoxy)-ethoxy]-acetyl)2-(γ-Glu)-CO-(CH2)14-CO2)-αMeY-LIK((2-[2-(2-Amino-ethoxy)-ethoxy]-acetyl)2-(γ-Glu)-CO-(CH2)14-CO2)GGPSSGAPPPS-NH2) [Example 443]")
"133 nM"
>>> value_measured("Y[Aib]EGT[αMePhe(2-F)]TSDV[Aib]I[αMeL]LD[Orn]K([AEEA-AEEA-C14 diacid])AQ[Aib]EFI[dE][αMeY]LIK([AEEA-AEEA-C14 diacid])GGPSSGAPPPS-NH2 [Example 389]")
"9.58 nM"
>>> value_measured("YXEGTXTSDXXIXLDXKAQXEXIXXLIKGGPSSGAPPPS (Y-Aib-EGT-αMeF(2F)-TSD-4Pal-Aib-I-αMeL-LD-Orn-K((2-[2-(2-Amino-ethoxy)-ethoxy]-acetyl)3-(γ-Glu)-CO-(CH2)10-CH3)AQ-Aib-E-αMeF-I-(D-Glu)-αMeY-LIK((2-[2-(2-Amino-ethoxy)-ethoxy]-acetyl)3-(γ-Glu)-CO-(CH2)10-CH3)GGPSSGAPPPS-NH2) [Example 438]")
"28 nM"
>>> value_measured("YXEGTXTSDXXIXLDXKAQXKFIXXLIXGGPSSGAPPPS (Y-Aib-EGT-αMeF(2F)-TSD-4Pal-Aib-I-αMeL-LD-Orn-K((2-[2-(2-Amino-ethoxy)-ethoxy]-acetyl)2-(γ-Glu)-(10-(4-carboxyphenoxy)decanoyl))AQ-Aib-K((2-[2-(2-Amino-ethoxy)-ethoxy]-acetyl)2-(γ-Glu)-(10-(4-carboxyphenoxy)decanoyl))FI-(D-Glu)-αMeY-LI-Orn-GGPSSGAPPPS-NH2) [Example 408]")
"5.92 nM"
>>> value_measured("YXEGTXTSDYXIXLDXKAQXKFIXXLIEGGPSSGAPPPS (Y-Aib-EGT-αMeF(2F)-TSDY-Aib-I-αMeL-LD-Orn-K((2-[2-(2-Amino-ethoxy)-ethoxy]-acetyl)-(γ-Glu)-(10-(4-carboxyphenoxy)decanoyl))AQ-Aib-K((2-[2-(2-Amino-ethoxy)-ethoxy]-acetyl)-(γ-Glu)-(10-(4-carboxyphenoxy)decanoyl))FI-(D-Glu)-αMeY-LIEGGPSSGAPPPS-NH2) [Example 372]")
"38 nM"
>>> value_measured("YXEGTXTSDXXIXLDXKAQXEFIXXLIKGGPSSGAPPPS (Y-Aib-EGT-αMeF(2F)-TSD-4Pal-Aib-I-αMeL-LD-Orn-K((2-[2-(2-Amino-ethoxy)-ethoxy]-acetyl)3-(γ-Glu)-CO-(CH2)10-CH3)AQ-Aib-EFI-(D-Glu)-αMeY-LIK((2-[2-(2-Amino-ethoxy)-ethoxy]-acetyl)3-(γ-Glu)-CO-(CH2)10-CH3)GGPSSGAPPPS-NH2) [Example 423]")
"4.74 nM"
>>> value_measured("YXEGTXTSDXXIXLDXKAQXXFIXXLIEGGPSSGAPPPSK (Y-Aib-EGT-αMeF(2F)-TSD-4Pal-Aib-I-αMeL-LD-Orn-K((2-[2-(2-Amino-ethoxy)-ethoxy]-acetyl)3-(γ Glu)-CO-(CH2)10CH3)AQ-Aib-Orn-FI-(D-Glu)-αMeY-LIEGGPSSGAPPPSK((2-[2-(2-Amino-ethoxy)-ethoxy]-acetyl)3-(γ-Glu)-CO-(CH2)10-CH3)-NH2) [Example 435]")
"1.63 nM"
>>> value_measured("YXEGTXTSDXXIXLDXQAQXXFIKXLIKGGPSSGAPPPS (Y-Aib-EGT-αMeF(2F)-TSD-4Pal-Aib-I-αMeL-LD-Orn-QAQ-Aib-Orn-FIK((γ-Glu)-(2-[2-(2-Amino-ethoxy)-ethoxy]-acetyl)2-(γ-Glu)-(10-(4-carboxyphenoxy)decanoyl))-αMeY-LIK((γ-Glu)-(2-[2-(2-Amino-ethoxy)-ethoxy]-acetyl)2-(γ-Glu)-(10-(4-carboxyphenoxy)decanoyl))GGPSSGAPPPS-NH2) [Example 483]")
"3.33 nM"
>>> value_measured("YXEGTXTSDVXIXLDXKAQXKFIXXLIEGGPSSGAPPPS (Y-Aib-EGT-αMeF(2F)-TSDV-Aib-I-αMeL-LD-Orn-K((2-[2-(2-Amino-ethoxy)-ethoxy]-acetyl)-(γ-Glu)-CO-(CH2)12-CO2H)AQ-Aib-K((2-[2-(2-Amino-ethoxy)-ethoxy]-acetyl)-(γ-Glu)-CO-(CH2)12-CO2H)FI-(D-Glu)-αMeY-LIEGGPSSGAPPPS-NH2) [Example 398]")
"41.3 nM"

These measurements were taken from patent US20230265151A1.
